- Experimental Target: α-synuclein aggregates (Homo sapiens, UniProt P37840)
- Measurement Notes: in vitro competition binding assay with [3H] positive reference compound #1 on α-synuclein aggregates
- Test Parameters: competition against [3H] positive reference compound #1 (100-200 nM), 120 min at 37° C., PBS; Ki by Cheng-Prusoff from IC50
Test Readout: Ki (nM)

Use the examples below as a reference point.
# Sample Smiles, Test Readout, Result Unit, Value Measured
measured = [
    ("Oc1ccc(-c2nc3cc(O)c(O)cc3o2)cc1O", "Ki", "nM", 1640),
    ("Oc1ccc(-c2cn(-c3ccc(O)c(O)c3)nn2)cc1O", "Ki", "nM", 697),
    ("Oc1ccc(-c2cc(-c3ccc(O)c(O)c3)c(-c3ccc(O)c(O)c3)s2)cc1O", "Ki", "nM", 3100),
    ("Oc1ccc(-c2nnc(-c3ccc(O)c(O)c3)o2)cc1O", "Ki", "nM", 466),
]

A. Oc1ccc(-c2cnc(-c3ccc(O)c(O)c3)o2)cc1O
B. Oc1ccc(-c2nsc(-c3ccc(O)c(O)c3)n2)cc1O
Which item exceeds the other in Ki, A or B ? To answer, give the label that identifies your chosen option.
A

---

- Experimental Target: α-synuclein aggregates (Homo sapiens, UniProt P37840)
- Measurement Notes: in vitro competition binding assay with [3H] positive reference compound #1 on α-synuclein aggregates
Test Readout: Ki (nM)

I. Oc1ccc(-c2cnc(-c3ccc(O)c(O)c3)s2)cc1O
II. Oc1ccc(-c2nnc(-c3cc(O)c(O)cc3Br)o2)cc1O
Looking only at measured Ki, which entry is lower, I or II ? When you have decided, please share the label of that item.
I
(I: 89 nM, II: 370 nM)
